- Tested on: S. cerevisiae SK1 pCDA2-eGFP (USY613), sporulating
- method-notes: CDA2-GFP sporulation assay sensitivity score (z-score vs DMSO controls); higher = stronger inhibition of sporulation, active = hit call of the paper;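 active = score above 5; some higher scores were not called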
Outcomes: 1 = active, -1 = inactive

compound="O=c1c(-c2ccccc2)c1-c1ccccc1 [Diphenylcyclopropenone] (stock concentration (mM, diluted 1:100): 10)" class_label=-1
compound="O=C1CC2(CCCC2)CC(=O)N1CCNCC1COc2ccccc2O1 (stereo unspecified) (stock concentration (mM, diluted 1:100): 10)" class_label=1
compound="COc1ccc(/C=C/C(=O)Nc2ccccc2C(=O)O)cc1OC [Tranilast] (stock concentration (mM, diluted 1:100): 10)" class_label=-1
compound="CCCCCCCCCCC[C@@H](C[C@@H]1OC(=O)[C@H]1CCCCCC)OC(=O)[C@H](CC(C)C)NC=O [Orlistat] (stock concentration (mM, diluted 1:100): 10)" class_label=-1
compound="Nc1c2c(nc3c1CCC3)CCCC2 [Amiridine] (stock concentration (mM, diluted 1:100): 10)" class_label=-1
compound="O=C(O[C@@H]1Cc2c(O)cc(O)cc2O[C@@H]1c1cc(O)c(O)c(O)c1)c1cc(O)c(O)c(O)c1 [Epigallocatechin gallate] (stock concentration (mM, diluted 1:100): 10)" class_label=-1

---

- Tested on: S. cerevisiae SK1 pCDA2-eGFP (USY613), sporulating
- method-notes: CDA2-GFP sporulation assay sensitivity score (z-score vs DMSO controls); higher = stronger inhibition of sporulation, active = hit call of the paper
Counter-ions that a name gives are not always drawn.
Catalogue of CDA2-GFP sporulation assay sensitivity score values
readout-label: CDA2-GFP sporulation assay sensitivity score

compound="CCC(C)n1ncn(-c2ccc(N3CCN(c4ccc(OCC5COC(Cn6cncn6)(c6ccc(Cl)cc6Cl)O5)cc4)CC3)cc2)c1=O (stereo not drawn) [Itraconazole] (stock concentration (mM, diluted 1:100): 10.1)" target_of_assay="S. cerevisiae SK1 pCDA2-eGFP (USY613), sporulating" result=0.16
compound="O=C1N[C@H](C(=O)O)CS1 [Procysteine] (stock concentration (mM, diluted 1:100): 10)" target_of_assay="S. cerevisiae SK1 pCDA2-eGFP (USY613), sporulating" result=0.97
compound="CCOC(=O)[C@@]1(CCCCCCOc2ccc(Cl)cc2)CO1 [Etomoxir] (stock concentration (mM, diluted 1:100): 10)" target_of_assay="S. cerevisiae SK1 pCDA2-eGFP (USY613), sporulating" result=5.49
compound="CS(=O)(=O)c1ccc(-c2cc(Br)sc2-c2ccc(F)cc2)cc1 (stock concentration (mM, diluted 1:100): 10)" target_of_assay="S. cerevisiae SK1 pCDA2-eGFP (USY613), sporulating" result=12.1
compound="Nc1nc2ccc(Cl)cc2c2nc(-c3ccco3)nn12 (stock concentration (mM, diluted 1:100): 10)" target_of_assay="S. cerevisiae SK1 pCDA2-eGFP (USY613), sporulating" result=-3.14
compound="C[C@H]1COc2c(C3(N)CC3)c(F)cc3c(=O)c(C(=O)O)cn1c23 [Pazufloxacin] (stock concentration (mM, diluted 1:100): 10)" target_of_assay="S. cerevisiae SK1 pCDA2-eGFP (USY613), sporulating" result=0.17
compound="COc1ccc(CC2c3cc(OC)c(OC)cc3CC[N+]2(C)CCC(=O)OCCCCCOC(=O)CC[N+]2(C)CCc3cc(OC)c(OC)cc3C2Cc2ccc(OC)c(OC)c2)cc1OC (stereo not drawn) [Atracurium besylate] (stock concentration (mM, diluted 1:100): 10)" target_of_assay="S. cerevisiae SK1 pCDA2-eGFP (USY613), sporulating" result=17.9
compound="COC(=O)C1=C(C)NC(C)=C(C(=O)OC(C)C)C1c1cccc2nonc12 (stereo not drawn) [Isradipine] (stock concentration (mM, diluted 1:100): 9.9)" target_of_assay="S. cerevisiae SK1 pCDA2-eGFP (USY613), sporulating" result=1.45
compound="C[C@]12C=CC(=O)C=C1CC[C@@H]1[C@@H]2[C@@H](O)C[C@@]2(C)[C@H]1CC[C@]2(O)C(=O)COC(=O)CCC(=O)O (stock concentration (mM, diluted 1:100): 10)" target_of_assay="S. cerevisiae SK1 pCDA2-eGFP (USY613), sporulating" result=-0.32
compound="OCc1cc(C(O)CNCCCCCCOCCCCc2ccccc2)ccc1O (stereo not drawn) [Salmeterol] (stock concentration (mM, diluted 1:100): 10)" target_of_assay="S. cerevisiae SK1 pCDA2-eGFP (USY613), sporulating" result=10.5
compound="O=c1c(O[C@@H]2O[C@H](CO)[C@H](O)[C@H](O)[C@H]2O)c(-c2ccc(O)c(O)c2)oc2cc(O)cc(O)c12 [Hyperoside] (stock concentration (mM, diluted 1:100): 8.8)" target_of_assay="S. cerevisiae SK1 pCDA2-eGFP (USY613), sporulating" result=0.06
compound="NC(=O)c1cccnc1 [Nicotinamide] (stock concentration (mM, diluted 1:100): 10)" target_of_assay="S. cerevisiae SK1 pCDA2-eGFP (USY613), sporulating" result=4.17
compound="CN1CCC(=C2c3ccccc3CC(=O)c3sccc32)CC1 [Ketotifen fumarate] (stock concentration (mM, diluted 1:100): 8.9)" target_of_assay="S. cerevisiae SK1 pCDA2-eGFP (USY613), sporulating" result=4.44
compound="C#C[C@]1(O)CC[C@H]2[C@@H]3[C@H](C)CC4=C(CCC(=O)C4)[C@H]3CC[C@@]21C [Tibolone] (stock concentration (mM, diluted 1:100): 10)" target_of_assay="S. cerevisiae SK1 pCDA2-eGFP (USY613), sporulating" result=5.97
compound="COc1ccccc1N1CCN(CC(O)COc2cccc3ccccc23)CC1 (stereo not drawn) [Naftopidil] (stock concentration (mM, diluted 1:100): 10)" target_of_assay="S. cerevisiae SK1 pCDA2-eGFP (USY613), sporulating" result=9.59
compound="CN1CCCC(n2nc(Cc3ccc(Cl)cc3)c3ccccc3c2=O)CC1 (stereo not drawn) [Azelastine hydrochloride] (stock concentration (mM, diluted 1:100): 9.1)" target_of_assay="S. cerevisiae SK1 pCDA2-eGFP (USY613), sporulating" result=0.63
compound="CC(=O)CCCCn1c(=O)c2c(ncn2C)n(C)c1=O [Pentoxifylline] (stock concentration (mM, diluted 1:100): 10)" target_of_assay="S. cerevisiae SK1 pCDA2-eGFP (USY613), sporulating" result=0.09
compound="CN(C)CCOC(c1ccccc1)c1ccccc1 [Diphenhydramine hydrochloride] (stock concentration (mM, diluted 1:100): 10)" target_of_assay="S. cerevisiae SK1 pCDA2-eGFP (USY613), sporulating" result=2.11
compound="CN(CCOc1ccc(NS(C)(=O)=O)cc1)CCc1ccc(NS(C)(=O)=O)cc1 [Dofetilide] (stock concentration (mM, diluted 1:100): 10)" target_of_assay="S. cerevisiae SK1 pCDA2-eGFP (USY613), sporulating" result=-0.99
compound="C#C[C@]1(O)CC[C@H]2[C@@H]3CCC4=CC(=O)CC[C@@H]4[C@H]3CC[C@@]21CC [Levonorgestrel] (stock concentration (mM, diluted 1:100): 10)" target_of_assay="S. cerevisiae SK1 pCDA2-eGFP (USY613), sporulating" result=0.19
compound="CC(C)[C@H]1CC[C@H](C(=O)N[C@H](Cc2ccccc2)C(=O)O)CC1 [Nateglinide] (stock concentration (mM, diluted 1:100): 10)" target_of_assay="S. cerevisiae SK1 pCDA2-eGFP (USY613), sporulating" result=0.06
compound="CN1CCN(C2=Nc3ccccc3Oc3ccc(Cl)cc32)CC1 [Loxapine succinate] (stock concentration (mM, diluted 1:100): 11)" target_of_assay="S. cerevisiae SK1 pCDA2-eGFP (USY613), sporulating" result=2.27
compound="C[C@]12CC[C@@H]3c4ccc(OS(=O)(=O)O)cc4CC[C@H]3[C@@H]1CCC2=O (stock concentration (mM, diluted 1:100): 10)" target_of_assay="S. cerevisiae SK1 pCDA2-eGFP (USY613), sporulating" result=4.09
